Here, each record is paired with measured pKd data.
system name: T1, human CCL17 (human, UniProt Q92583 24-94)
T1 construct: Biotinylated in the Fab ELISAs; also called huCCL17; Bt-huCCL17
T1 sequence: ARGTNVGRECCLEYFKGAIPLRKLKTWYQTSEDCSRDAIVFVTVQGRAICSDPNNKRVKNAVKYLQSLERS
test: solution equilibrium affinity (MSD-SEA), TBST, 48 h at 4 °C
Description: Equal volumes of the anti-hCCL17 mAbs at 40 pM or 200 pM were added to each chemokine dilution to obtain mixtures containing the serial dilution of chemokines starting at a final concentration of […] and a constant concentration (20 pM or 100 pM) of anti-CCL17 antibody. The mixtures were prepared in duplicate and incubated at 4° C. for 48 hours to reach equilibrium. The free antibody was detected using a SECTOR Imager 6000 (Meso Scale Discovery) instrument. […]
# pKd = -log10(concentration in molar units)

Some solved cases for reference:
binder	pKd
C17B238 (antibody, V domains shown, Full IgG1, kappa) VH: EVQLVQSGAEVKKPGESLKISCKGSGYSFTSYWIGWVRQMPGKGLEWMGIIDPSDSDTRYSPSFQGQVTISADKSISTAYLQWSSLKASDTAMYYCARVGPADVWDSFDYWGQGTLVTVSS VL: DIVMTQSPDSLAVSLGERATINCKSSQSVLISAFNQNPLAWYQQKPGQPPKLLIYDASTRESGVPDRFSGSGSGTDFTLTISSLQAEDVAVYYCQQYQFIPFTFGQGTKVEIK	9.94
C17B243 (antibody, V domains shown, Full IgG1, kappa) VH: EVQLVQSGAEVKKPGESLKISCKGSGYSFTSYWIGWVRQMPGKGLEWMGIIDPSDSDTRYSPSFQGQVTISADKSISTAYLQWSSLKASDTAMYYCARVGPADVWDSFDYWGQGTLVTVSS VL: DIVMTQSPDSLAVSLGERATINCKSSQSVLNSFDNKNDLAWYQQKPGQPPKLLIYEASTRESGVPDRFSGSGSGTDFTLTISSLQAEDVAVYYCQQHWQTPLTFGQGTKVEIK	10.55

Okay, next one:
State the recorded pKd for this entry: C17B240 (antibody, V domains shown, Full IgG1, kappa) VH: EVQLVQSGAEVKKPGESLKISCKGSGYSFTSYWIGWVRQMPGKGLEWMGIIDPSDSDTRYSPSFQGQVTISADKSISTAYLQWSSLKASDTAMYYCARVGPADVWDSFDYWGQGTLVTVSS VL: DIVMTQSPDSLAVSLGERATINCKSSQSVLYSHVNYNALAWYQQKPGQPPKLLIYNASTRESGVPDRFSGSGSGTDFTLTISSLQAEDVAVYYCQQYYTLPATFGQGTKVEIK
10.08

src = patent US20220348647A1
